# Test Target: Rap guanine nucleotide exchange factor 3 (Homo sapiens) (UniProt O95398)
# Sequence (O95398 whole entry, looked up): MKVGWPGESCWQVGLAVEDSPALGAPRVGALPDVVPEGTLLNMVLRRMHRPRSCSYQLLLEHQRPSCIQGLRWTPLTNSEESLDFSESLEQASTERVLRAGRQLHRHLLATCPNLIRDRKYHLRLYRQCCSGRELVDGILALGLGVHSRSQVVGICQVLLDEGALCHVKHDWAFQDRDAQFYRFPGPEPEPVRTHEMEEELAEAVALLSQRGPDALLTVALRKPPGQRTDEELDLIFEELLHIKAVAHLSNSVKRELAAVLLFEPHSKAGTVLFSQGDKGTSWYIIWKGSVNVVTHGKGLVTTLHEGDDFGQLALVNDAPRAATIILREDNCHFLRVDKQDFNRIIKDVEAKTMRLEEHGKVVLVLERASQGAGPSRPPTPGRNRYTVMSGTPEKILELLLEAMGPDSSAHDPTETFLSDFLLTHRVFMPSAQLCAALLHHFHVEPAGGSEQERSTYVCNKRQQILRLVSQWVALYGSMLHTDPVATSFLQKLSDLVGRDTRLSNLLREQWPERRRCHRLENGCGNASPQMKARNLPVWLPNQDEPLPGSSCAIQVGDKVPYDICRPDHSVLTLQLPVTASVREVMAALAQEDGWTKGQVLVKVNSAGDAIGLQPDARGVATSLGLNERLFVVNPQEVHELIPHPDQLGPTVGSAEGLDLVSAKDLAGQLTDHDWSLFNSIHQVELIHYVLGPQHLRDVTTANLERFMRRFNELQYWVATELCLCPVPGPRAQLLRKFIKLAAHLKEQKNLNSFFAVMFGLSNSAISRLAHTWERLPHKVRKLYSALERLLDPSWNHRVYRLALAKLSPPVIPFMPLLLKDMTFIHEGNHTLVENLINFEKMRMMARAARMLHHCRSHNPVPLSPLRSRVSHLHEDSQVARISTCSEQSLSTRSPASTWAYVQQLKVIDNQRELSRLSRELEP
# Protocol Text: Counterscreen qHTS for antagonist of cAMP-regulated guanine nucleotide exchange factor 3 (EPAC1) (AID 1645888);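 further: fluorescence loss as bound BODIPY-GDP is released from Rap1B; % of control where 0% means no effect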
# Conditions: Rap1B-BODIPY-GDP nucleotide exchange, fluorescence; series mostly up to 154 µM
Records with an inconclusive call do not appear. Calls of active or inactive are those of the source. The call rests on the fitted dose curve; in most records, active means well fitted inhibition curve with a large enough effect; inconclusive means small, poorly fitted or top-dose-only effect; inactive means no such curve, though single readings can be large or run the other way.
Readout Name: activity change, negative = inhibition

Known results for molecules:
• C/C(CC(=O)N1CCCC1)=N\NC(=O)c1cc2ccccc2cc1O = inactive
• CCOC(=O)C1C(=O)C=C(c2ccc(C)cc2)CC1c1ccccc1 (stereo not drawn) = -1.31% [at 30.8 µM] (inactive)
• COc1ccccc1CN(C)CC(=O)Nc1ccccc1-c1ccccc1 = inactive
• O=C1Cc2ccccc2C(=O)N1CCc1ccccc1 = inactive

// field: activity change, negative = inhibition; key: COC(=O)c1cc(Br)c(=O)n(CCc2ccc(F)cc2)c1 ; value = inactive

Record Cc1ccc(-c2ccccc2C2=CC(=O)CC(C)(C)C2=O)cc1 . Reported activity change, negative = inhibition: 11.7% [at 30.8 µM] (inactive)

In plain terms, CCOc1ccc(NC(=O)/C(C#N)=C/c2ccc(N3CCCC3)c(C)c2)cc1 has a documented activity change, negative = inhibition of 15.4% [at 30.8 µM] (inactive)

Query CN(Cc1ccccc1)C(=O)C1CCCN(Cc2cccc(Cl)c2)C1 (stereo not drawn) yields activity change, negative = inhibition of inactive

Recorded result, O=C(NCc1ccccc1)C(c1ccccc1)n1c(=O)c(-c2ccco2)nc2ccccc21 (stereo not drawn) , activity change, negative = inhibition: 5.07% [at 30.8 µM] (inactive)

// recorded activity change, negative = inhibition for COc1cc2c(cc1OC)CN(C(C)C(=O)N1CCc3ccccc31)CC2 (stereo not drawn) : inactive

Per the record, N#Cc1cc(Br)ccc1N=C1CCCN1c1ccccc1 has activity change, negative = inhibition of inactive

Looking up O=C(COC(=O)c1ccc([N+](=O)[O-])s1)NCc1ccccc1 , I see its activity change, negative = inhibition listed as inactive

Measured activity change, negative = inhibition of CC(=O)c1c(-c2ccccc2)c2cc(Cl)ccc2n(C)c1=O : -1.67% [at 30.8 µM] (inactive)

The molecule identified as COC(=O)c1cc2sc(C)cc2n1Cc1ccc(F)cc1Cl registered its activity change, negative = inhibition at inactive

Record CSc1ccccc1NC(=O)CN1c2ccccc2CC1C (stereo not drawn) . Reported activity change, negative = inhibition: -0.569% [at 30.8 µM] (inactive)

Measured activity change, negative = inhibition of CSc1ccc(CCNC(=O)c2csc3c2CCCCC3)cc1 : inactive

response.value for COC(=O)Cn1c(CN2CCc3ccccc3C2)nc2c1c(=O)n(C)c(=O)n2C (field: activity change, negative = inhibition) = inactive

For reference, reported activity change, negative = inhibition for CCOC(=O)c1ccc(-n2c(N)c(C(=O)OC)c3nc4ccccc4nc32)cc1 stands at inactive

Sample O=[N+]([O-])c1ccc(NS(=O)(=O)c2ccc(Cl)c(Cl)c2)cc1 ; activity change, negative = inhibition observed: inactive

// activity change, negative = inhibition lookup, molecule = CCC(=O)NC(c1ccc(C)cc1)c1cc([N+](=O)[O-])c2cccnc2c1O (stereo not drawn) , result: inactive

Per the record, CCOC(=O)N1CCc2c(sc3c2c(=O)n(-c2ccc(F)cc2)c(=O)n3CC(=O)c2ccc(Cl)cc2)C1 has activity change, negative = inhibition of inactive

# activity change, negative = inhibition (molecule: S=C(Nc1ccc2nsnc2c1)N1CCCCC1 ) is inactive

Reported activity change, negative = inhibition for Cc1cc(NS(=O)(=O)c2ccc(Nc3nc(-c4ccc(O)cc4)cs3)cc2)no1 was inactive
